system: Phosphodiesterase 3 (Canis lupus familiaris); assay: In vitro inhibition of cAMP Phosphodiesterase 3 at a concentration of 10 uM
endpoint-label: inhibition (%)

These solved cases illustrate the format of a correct answer.
*Q* Tell me inhibition reported for `Oc1ccc2c(-n3ccnc3)nccc2n1`
*A* 56

*Q* Tell me inhibition reported for `Cc1nccc2nc(S)ccc12`
*A* 81

*Q* Tell me inhibition reported for `Cc1ncn(-c2nccc3nc(O)ccc23)c1C`
*A* 28

*Q* Tell me inhibition reported for `Cc1cc2cnccc2nc1O`
*A* 37

(P) Cc1nccc2nc(O)c(N)cc12
(Q) Cc1nccc2nc(O)c(C(N)=O)cc12
(R) Cc1nccc2c1ccc(=O)n2C
*Q* Hello, I need these entries ordered by inhibition, highest reading first. Thanks! Quick reminder: the answer is the labels in the order asked.
*A* P, Q, R
(P: 59%, Q: 39%, R: 17%)

Recorded values, source ChEMBL document CHEMBL1125567.
